- target-system: UniProt:P40238
- Sequence (whole entry): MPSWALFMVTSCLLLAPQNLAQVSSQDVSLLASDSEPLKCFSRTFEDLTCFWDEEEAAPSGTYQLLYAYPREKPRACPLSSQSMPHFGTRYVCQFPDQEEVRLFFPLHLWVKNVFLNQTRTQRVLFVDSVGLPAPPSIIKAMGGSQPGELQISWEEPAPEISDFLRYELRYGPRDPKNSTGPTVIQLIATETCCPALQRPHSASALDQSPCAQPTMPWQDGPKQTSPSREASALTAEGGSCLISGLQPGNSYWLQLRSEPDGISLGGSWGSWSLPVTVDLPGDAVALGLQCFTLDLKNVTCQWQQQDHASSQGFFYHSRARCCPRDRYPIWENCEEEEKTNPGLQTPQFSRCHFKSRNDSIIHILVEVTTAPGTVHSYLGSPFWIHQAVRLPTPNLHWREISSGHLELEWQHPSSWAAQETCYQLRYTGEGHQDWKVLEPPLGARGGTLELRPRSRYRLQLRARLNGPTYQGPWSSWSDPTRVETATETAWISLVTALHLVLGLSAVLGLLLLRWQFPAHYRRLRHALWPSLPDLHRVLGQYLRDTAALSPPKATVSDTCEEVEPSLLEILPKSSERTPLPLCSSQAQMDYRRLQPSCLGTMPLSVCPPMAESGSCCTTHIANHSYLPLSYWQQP
- test-method-notes: Thrombopoietin luciferase activity in BAF-3 cells
- Format: cell-based
- assay-conditions: BaF3
property-name: Efficacy

Task: For the molecule Cc1cccc(-n2[nH]c(C)c(/N=N/c3c(O)cc(S(=O)(=O)O)c4ccccc34)c2=O)c1 , report Efficacy.
Output: 34%

Task: For the molecule Cc1ccc(-n2[nH]c(C)c(/N=N/c3c(O)cc(S(=O)(=O)O)c4ccccc34)c2=O)cc1 , report Efficacy.
Output: 53%

Task: For the molecule Cc1[nH]n(-c2ccc(S(C)(=O)=O)cc2)c(=O)c1/N=N/c1c(O)cc(S(=O)(=O)O)c2ccccc12 , report Efficacy.
Output: 18%

Task: For the molecule Cc1[nH]n(-c2ccc(Cl)cc2)c(=O)c1/N=N/c1c(O)cc(S(=O)(=O)O)c2ccccc12 , report Efficacy.
Output: 47%

Task: For the molecule O=C(Nc1c(O)cc(S(=O)(=O)O)c2ccccc12)c1c(O)ccc2ccccc12 , report Efficacy.
Output: < 5%

Task: For the molecule Cc1[nH]n(-c2ccccc2)c(=O)c1/N=N/c1c(O)cc(C(=O)O)c2ccccc12 , report Efficacy.
Output: 21%

Task: For the molecule CCOC(=O)c1[nH]n(-c2ccc(C(C)(C)C)cc2)c(=O)c1/N=N/c1c(O)cc(S(=O)(=O)O)c2ccccc12 , report Efficacy.
Output: 56%

Task: For the molecule Cc1[nH]n(-c2ccccn2)c(=O)c1/N=N/c1c(O)cc(S(=O)(=O)O)c2ccccc12 , report Efficacy.
Output: 24%

Task: For the molecule Cc1[nH]n(-c2ccc(C(C)C)cc2)c(=O)c1/N=N/c1c(O)cc(S(=O)(=O)O)c2ccccc12 , report Efficacy.
Output: 100%

Task: For the molecule O=[N+]([O-])c1cc(O)c(/N=N/c2c(O)ccc3ccccc23)c2ccccc12 , report Efficacy.
Output: < 5%

Task: For the molecule Cc1[nH]n(-c2ccc([N+](=O)[O-])cc2)c(=O)c1/N=N/c1c(O)cc(S(=O)(=O)O)c2ccccc12 , report Efficacy.
Output: 63%

Task: For the molecule Cc1[nH]n(-c2cccc(C(C)(C)C)c2)c(=O)c1/N=N/c1c(O)cc(S(=O)(=O)O)c2ccccc12 , report Efficacy.
Output: 71%

Task: For the molecule Cc1ccccc1-n1[nH]c(C)c(/N=N/c2c(O)cc(S(=O)(=O)O)c3ccccc23)c1=O , report Efficacy.
Output: 30%

Task: For the molecule O=C(O)c1cccc2c(/N=N/c3c(O)cc(S(=O)(=O)O)c4ccccc34)c(O)ccc12 , report Efficacy.
Output: < 5%

Task: For the molecule O=S(=O)(O)c1cc(O)c(/N=N/c2c(O)ccc3ccc(O)cc23)c2ccccc12 , report Efficacy.
Output: 31%

Task: For the molecule O=S(=O)(O)c1ccc(/N=N/c2c(O)ccc3ccccc23)c2ccccc12 , report Efficacy.
Output: < 5%

Task: For the molecule CC(C)(C)c1ccc(-n2[nH]c(C(=O)O)c(/N=N/c3c(O)cc(S(=O)(=O)O)c4ccccc34)c2=O)cc1 , report Efficacy.
Output: < 5%

Task: For the molecule Cc1[nH]n(-c2cccc(C(F)(F)F)c2)c(=O)c1/N=N/c1c(O)cc(S(=O)(=O)O)c2ccccc12 , report Efficacy.
Output: 62%
